Test system: UACC-257 melanoma
Test: NCI-60 one-dose screen, 48 h (100 = growth as untreated, 0 = no growth, -100 = all killed)
Conditions: 10 µM
Procedure: Cells are grown in 96 well plates and exposed to the test compound for 48 hours. Compounds are tested at a single concentration, which is 10^-5 M for most compounds. The reported endpoint is percent growth (GI% or GIPRCNT), where numbers from 0 - 100% represent growth inhibition, and numbers from -100% - 0 represent cell death. For example, a value of 40 represents 60% growth inhibition. A value of 0 means no net growth occurred over the course of the experiment. […]
Compounds without any hit were thinned out: in the full panel of roughly 83,000, 20% have a hit.
Reported growth maps to class as: band 1 = under 30%, band 2 = from 30% up to 80%, band 3 = 80% and over

Tag the class for "O=[N+]([O-])c1ccc(N/N=C/c2cccc3ccccc23)nc1"
band 3

State the band of "CCCCCCCCN(CCCCCCCC)CCCCCCCCCN1CCCc2cc(OC)ccc21"
band 3

Which class holds "O=C(Nc1cccc(-n2cc(-c3ccncc3)c(-c3ccc(O)c(Cl)c3)n2)c1)c1cccc(C(F)(F)F)c1" ?
band 2

---

test system: HCT-15 colon; test: NCI-60 one-dose screen, 48 h (100 = growth as untreated, 0 = no growth, -100 = all killed); conditions: 10 µM
This is part of a sample that, as a whole, favours compounds with a hit. Of some 83,000 tested, about 20% had one in any assay.
Below, each entry is listed with its recorded growth.
Respond numerically; units are % and should not be typed.

Give growth (HCT-15 colon) of the following molecule: "COC(=O)c1ccc(=O)oc1"
97.8

---

tested on: MCF7 breast; test: NCI-60 one-dose screen, 48 h; settings: 10 µM
The panel holds about 83,000 compounds, 20% with a hit somewhere; the sample as a whole holds those more often. Activity calls are given as the source filed them. How the source made its calls: active means growth percent below 10; inactive means the rest.
Reply using exactly one outcome from active, inactive

// known answers, use as guide
COc1cc(-c2cc(/C=C3\C(=O)Nc4ccc(Cl)cc43)[nH]n2)cc(OC)c1OC = active
O=C1Nc2ccc(Cl)cc2/C1=C\c1c(-c2ccc(Cl)cc2)nc2sc(C3CC3)nn12 = inactive

// outcome(item) with item = COc1cc([C@@H]2c3cc4c(cc3C(Br)[C@H]3COC(=O)[C@H]23)OCO4)cc(OC)c1OC (some centres undefined)
active

For "CC12O[C@H](C[C@@H](OC(=O)c3ccccc3)[C@H]1O)n1c3ccccc3c3c4c(c5c6ccccc6n2c5c31)C(=O)NC4=O" , what call appears in the results of this test?
inactive

---

system: UO-31 renal; assay: NCI-60 one-dose screen, 48 h; conditions: 10 µM
This is part of a sample that, as a whole, favours compounds with a hit. Of some 83,000 tested, about 20% had one in any assay. Active and inactive are the calls of the source. The calls were made as follows: active = growth percent below 10; inactive = the rest.
One label from this list, please: 1 (yes) for active, 0 (no) for inactive

Example entries and their recorded answers appear below.
C/C(N)=C(\C#N)C(=O)c1ccccc1 = 0 (no)
COc1ccc2c(c1)O/C(=C\c1ccc([N+](=O)[O-])o1)C2=O = 1 (yes)
CC12O[C@H](C[C@@H](OC(=O)c3ccccc3)[C@H]1O)n1c3ccccc3c3c4c(c5c6ccccc6n2c5c31)C(=O)NC4=O = 1 (yes)

Hi, sorry to bother you, what did the test record for "CNc1ncc(-c2ccc(C(F)(F)F)cc2)c(NC2CCCCCC2)n1" ?
0 (no)

# fetch the recorded call for COc1ccc(OC)c2c1C(=O)CC2C (stereo unspecified) here
0 (no)

Record lookup: outcome of this test for "Cc1ccc2oc3nc(C)c(C(=O)NCc4ccccc4)cc3c(=O)c2c1" ?
0 (no)
